The measured values listed here are drawn from patent US7928107B2.

Listing of recorded IC50 by entry.
biological target: NaV 1.8 channel (Homo sapiens); assay: Activity against NaV 1.8 channel (optical membrane potential assay)

Please review the entries below; each comes with its answer.
1) C[C@@H](O)CC(=O)N1CCN(c2nc(-c3ccccc3O)nc3ccccc23)CC1 [Example 173]    > 10 µM
2) Cc1ccc2c(N3CCN(C(=O)[C@H](O)CC(C)C)CC3CO)nc(-c3ccccc3O)nc2c1 (some centres unmarked) [Example 172]    > 10 µM
3) Cc1ccc2c(N3CC(C(=O)NCc4ccncc4)C3)nc(-c3ccccc3O)nc2c1 [Example 401]    > 10 µM
4) CC(C)(C)COC(=O)NC[C@@H]1CCN(c2nc(-c3ccccc3O)nc3ccc(F)cc23)C1 [Example 375]    > 10 µM
5) Cc1ccc2c(N3CCN(C(=O)C(O)CC(C)C)CC3)nc(-c3ccccc3O)nc2c1 (centres unmarked) [Example 180]    2 to 10 µM
6) Cc1ccc2c(N3CCC(NC(=O)[C@@H](O)CC(C)C)CC3)nc(-c3ccccc3O)nc2c1 [Example 268]    > 10 µM

In the following, a different compound is considered.
Requested field: IC50. Item: Cc1ccc2c(N3CCC[C@@H](CNC(=O)OC(C)C)C3)nc(-c3ccccc3O)nc2c1 [Example 255] > 10 µM

---

biological target: NaV 1.8 channel (Homo sapiens, UniProt Q9Y5Y9); test: Activity against NaV 1.8 channel (optical membrane potential assay)
Sequence (Q9Y5Y9 whole entry): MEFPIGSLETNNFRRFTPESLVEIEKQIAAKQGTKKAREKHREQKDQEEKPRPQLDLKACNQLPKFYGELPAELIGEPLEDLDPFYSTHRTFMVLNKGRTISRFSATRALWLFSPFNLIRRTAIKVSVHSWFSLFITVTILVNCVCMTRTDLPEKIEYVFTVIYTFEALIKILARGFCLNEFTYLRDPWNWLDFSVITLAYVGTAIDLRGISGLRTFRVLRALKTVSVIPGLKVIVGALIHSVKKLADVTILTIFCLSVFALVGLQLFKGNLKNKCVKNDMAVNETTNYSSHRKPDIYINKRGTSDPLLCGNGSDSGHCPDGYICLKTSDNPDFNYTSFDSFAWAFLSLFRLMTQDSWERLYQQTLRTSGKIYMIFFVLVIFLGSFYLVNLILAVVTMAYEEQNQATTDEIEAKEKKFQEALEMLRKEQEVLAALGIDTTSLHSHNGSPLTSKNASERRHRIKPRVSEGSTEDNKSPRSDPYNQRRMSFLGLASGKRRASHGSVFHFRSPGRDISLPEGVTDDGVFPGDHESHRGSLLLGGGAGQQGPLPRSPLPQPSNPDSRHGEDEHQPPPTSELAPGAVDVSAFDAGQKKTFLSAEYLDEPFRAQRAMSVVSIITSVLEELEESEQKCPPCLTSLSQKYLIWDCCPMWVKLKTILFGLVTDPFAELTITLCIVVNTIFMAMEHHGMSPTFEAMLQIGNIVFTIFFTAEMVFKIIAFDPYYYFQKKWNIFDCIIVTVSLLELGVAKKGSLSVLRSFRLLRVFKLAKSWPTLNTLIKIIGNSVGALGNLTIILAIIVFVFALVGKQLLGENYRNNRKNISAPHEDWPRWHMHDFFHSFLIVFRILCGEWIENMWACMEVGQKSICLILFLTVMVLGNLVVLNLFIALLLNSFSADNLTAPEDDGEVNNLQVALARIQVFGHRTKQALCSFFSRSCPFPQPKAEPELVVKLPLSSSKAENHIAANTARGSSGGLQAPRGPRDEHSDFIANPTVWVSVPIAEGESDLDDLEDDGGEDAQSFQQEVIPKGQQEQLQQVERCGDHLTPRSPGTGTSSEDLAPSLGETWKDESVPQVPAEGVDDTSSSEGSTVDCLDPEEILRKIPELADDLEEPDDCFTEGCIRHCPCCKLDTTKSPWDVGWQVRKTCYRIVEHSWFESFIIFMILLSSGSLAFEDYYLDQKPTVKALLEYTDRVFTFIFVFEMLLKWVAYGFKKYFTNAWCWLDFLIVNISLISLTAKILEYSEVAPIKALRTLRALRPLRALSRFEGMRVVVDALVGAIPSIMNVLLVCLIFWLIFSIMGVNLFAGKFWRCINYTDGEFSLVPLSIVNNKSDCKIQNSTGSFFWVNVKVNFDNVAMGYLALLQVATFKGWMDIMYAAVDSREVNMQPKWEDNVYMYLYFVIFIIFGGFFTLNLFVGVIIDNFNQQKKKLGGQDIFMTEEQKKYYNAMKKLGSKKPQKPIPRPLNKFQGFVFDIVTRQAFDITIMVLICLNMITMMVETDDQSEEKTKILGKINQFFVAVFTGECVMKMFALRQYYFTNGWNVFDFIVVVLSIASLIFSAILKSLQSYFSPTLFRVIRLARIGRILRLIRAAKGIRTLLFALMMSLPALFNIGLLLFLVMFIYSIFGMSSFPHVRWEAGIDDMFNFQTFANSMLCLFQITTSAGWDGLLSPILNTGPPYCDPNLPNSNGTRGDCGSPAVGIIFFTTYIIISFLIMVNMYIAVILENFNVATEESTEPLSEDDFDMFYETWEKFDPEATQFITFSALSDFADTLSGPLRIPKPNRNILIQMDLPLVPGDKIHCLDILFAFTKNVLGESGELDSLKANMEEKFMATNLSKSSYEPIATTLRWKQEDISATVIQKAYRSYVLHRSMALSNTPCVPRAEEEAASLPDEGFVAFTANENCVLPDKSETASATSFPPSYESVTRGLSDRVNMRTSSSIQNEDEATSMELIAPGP
pIC50: −log10 of the molar value.
attribute-measured: pIC50

Sample answers from the record:
1) COc1cccc(C(=O)N[C@@H]2CCN(c3nc(-c4ccccc4O)nc4cc(C)ccc34)C2)c1 [Example 326]    < 5.00
2) Cc1ccc2c(N3CCC[C@@H](CNC(=O)OCC(C)C)C3)nc(-c3ccccc3O)nc2c1 [Example 252]    < 5.00
3) Cc1ccc2c(N3CCN(C(=O)OCC4CCCO4)CC3)nc(-c3ccccc3O)nc2c1 (centres unmarked) [Example 185]    5.00 to 5.70
4) Cc1ccc2c(N3CCN(C(=O)OCc4ccccc4)CC3CO)nc(-c3ccccc3O)nc2c1 (centres unmarked) [Example 157]    5.00 to 5.70
5) Cc1ccc2c(N3CCN(C(=O)OCc4cccnc4)CC3)nc(-c3ccccc3O)nc2c1 [Example 132]    5.00 to 5.70
6) Cc1ccc2c(N3CC[C@@H](NC(=O)C4C(C)(C)C4(C)C)C3)nc(-c3ccccc3O)nc2c1 [Example 340]    > 5.70
7) Cc1ccc2c(N3CCC[C@@H](NC(=O)O[C@@H]4CCOC4)C3)nc(-c3ccccc3O)nc2c1 [Example 207]    > 5.70
8) Cc1ccc2c(N3CC[C@H](CNC(=O)OCc4ccccc4)C3)nc(-c3ccccc3O)nc2c1 [Example 362]    < 5.00
9) Cc1ccc2c(N3CC(C(=O)NCc4cccnc4)C3)nc(-c3ccccc3O)nc2c1 [Example 402]    < 5.00
10) O=C(O[C@@H]1CCOC1)N1CCN(c2nc(-c3ccccc3O)nc3ccc(F)cc23)CC1 [Example 148]    5.00 to 5.70

Which pIC50 is listed for Cc1ccc2c(N3CC[C@@H](CNC(=O)[C@H]4CCCO4)C3)nc(-c3ccccc3O)nc2c1 [Example 310] ? 5.00 to 5.70

Bench note: what pIC50 did O=C(N[C@@H]1CCN(c2nc(-c3ccccc3O)nc3ccc(F)cc23)C1)O[C@H]1CCOC1 [Example 335] show? 5.00 to 5.70

Give the measured pIC50 of COCCOC(=O)NC[C@@H]1CCCN(c2nc(-c3c(O)cccc3F)nc3cc(C)ccc23)C1 [Example 261] . 5.00 to 5.70

Looking for the measured pIC50 of CC(C)C[C@@H](O)C(=O)N1CCN(c2nc(-c3ccccc3O)nc3ccc(C#N)cc23)CC1 [Example 142] , can you help? 5.00 to 5.70

Which pIC50 is listed for Cc1ccc2c(N3CC[C@@H](NC(=O)[C@H]4CCCO4)C3)nc(-c3ccccc3O)nc2c1 [Example 302] ? < 5.00

Dear colleague, I am looking for the recorded pIC50 of the following molecule: Cc1ccc2c(N3CCN(C(=O)[C@@H](O)Cc4cnc[nH]4)CC3)nc(-c3ccccc3O)nc2c1 [Example 141] < 5.00

Entry Cc1ccc2c(N3CCN(C(=O)O[C@H]4COC5OCC[C@@H]54)CC3)nc(-c3ccccc3O)nc2c1 (some centres unmarked) [Example 190] : reported pIC50 = ? 5.00 to 5.70

---

Molecular target: NaV 1.8 channel (Homo sapiens, UniProt Q9Y5Y9)
Test: Activity against NaV 1.8 channel (optical membrane potential assay)
Experimental: Compounds of the invention are useful as antagonists of voltage-gated sodium ion channels. Antagonist properties of test compounds were assessed as follows. Cells expressing the NaV of interest were placed into microtiter plates. […] The cells were stimulated with either a chemical or electrical means to evoke a NaV dependent membrane potential change from unblocked channels, which was detected and measured with trans-membrane potential-sensitive dyes. […]
pIC50: −log10 of the molar value.
attribute-measured: pIC50

Example compounds with recorded pIC50:
1) CC(C)COC(=O)NC[C@@H]1CCN(c2nc(-c3ccccc3O)nc3ccc(F)cc23)C1    < 5.00
2) C[C@H](O)CC(=O)N1CCN(c2nc(-c3ccccc3O)nc3ccccc23)CC1    5.00 to 5.70
3) Cc1ccc2c(N3CCN(C(=O)C(C)(C)C)CC3)nc(-c3ccccc3O)nc2c1    > 5.70
4) Cc1ccc2c(N3CCCC(CNC(=O)O[C@@H]4CCOC4)C3)nc(-c3ccccc3O)nc2c1 (stereo partly drawn)    5.00 to 5.70
5) Cc1ccc2c(N3CCCC(CNC(=O)C4CC4)C3)nc(-c3ccccc3O)nc2c1 (stereo not drawn)    < 5.00

Please give the measured pIC50 for this compound: Cc1ccc2c(N3CCCC(CNC(=O)O[C@H]4CCOC4)C3)nc(-c3ccccc3O)nc2c1 (stereo partly drawn) < 5.00

I would be grateful if you could share the reported pIC50 for Cc1ccc2c(N3CCCC(CNC(=O)OCC(C)C)C3)nc(-c3ccccc3O)nc2c1 (stereo not drawn) . > 5.70

---

target: NaV 1.8 channel (Homo sapiens, UniProt Q9Y5Y9); experiment: Activity against NaV 1.8 channel (optical membrane potential assay)
attribute-measured: IC50

Some molecules with recorded IC50:
1. Cc1ccc2c(N3CCC(CNC(=O)OC(C)C)CC3)nc(-c3ccccc3O)nc2c1 [Example 279]    2 to 10 µM
2. Cc1ccc2c(N3CCN(C(=O)O[C@@H]4CCOC4)[C@@H](CO)C3)nc(-c3ccccc3O)nc2c1 [Example 149]    > 10 µM
3. Cc1ccc2c(N3CCC(CNC(=O)[C@H](O)C(C)C)CC3)nc(-c3ccccc3O)nc2c1 [Example 269]    > 10 µM
4. COCCOC(=O)NC1CCN(c2nc(-c3ccccc3O)nc3ccc(F)cc23)CC1 [Example 258]    < 2 µM
5. O=C(NC[C@@H]1CCN(c2nc(-c3ccccc3O)nc3ccc(F)cc23)C1)O[C@H]1CCOC1 [Example 356]    > 10 µM
6. Cc1ccc2c(N3CC[C@@H](NC(=O)CCc4ccccn4)C3)nc(-c3ccccc3O)nc2c1 [Example 318]    > 10 µM
7. CCCOC(=O)NC[C@@H]1CCN(c2nc(-c3ccccc3O)nc3ccc(F)cc23)C1 [Example 374]    > 10 µM
8. Cc1ccc2c(N3CCC(NC(=O)[C@H]4CCCO4)C3)nc(-c3ccccc3O)nc2c1 (stereo in doubt) [Example 303]    2 to 10 µM

May I ask what IC50 has been recorded for Cc1ccc2c(N3CC[C@@H](NC(=O)[C@H](O)CC(C)(C)C)C3)nc(-c3ccccc3O)nc2c1 [Example 361] ? 2 to 10 µM

What value of measured IC50 is listed for CC[C@H](O)C(=O)N1CCN(c2nc(-c3ccccc3O)nc3cc(C)ccc23)CC1 [Example 137] ? 2 to 10 µM

Which IC50 is reported for this molecule? CC(=O)C[C@@H](O)C(=O)N1CCN(c2nc(-c3ccccc3O)nc3cc(C)ccc23)CC1 [Example 151] > 10 µM

---

molecular target: NaV 1.8 channel (Homo sapiens, UniProt Q9Y5Y9); experiment: Activity against NaV 1.8 channel (optical membrane potential assay)
pIC50: −log10 of the molar value.
// reported pIC50 for each item listed

Consider the reported pIC50 for these compounds:
1. Cc1ccc2c(N3CC[C@@H](NC(=O)c4ccccn4)C3)nc(-c3c(O)cccc3F)nc2c1    5.00 to 5.70
2. Cc1ccc2c(N3CC[C@H](CNC(=O)O[C@H]4CCOC4)C3)nc(-c3ccccc3O)nc2c1    < 5.00
3. Cc1ccc2c(N3CCN(C(=O)C(O)C(C)C)CC3)nc(-c3ccccc3O)nc2c1 (stereo not drawn)    5.00 to 5.70
4. Cc1ccc2c(N3CCCC(C(=O)NCC4CCCO4)C3)nc(-c3ccccc3O)nc2c1 (stereo not drawn)    5.00 to 5.70
5. Cc1ccc2c(N3CCN(C(=O)OCC4CCOC4)CC3)nc(-c3ccccc3O)nc2c1 (stereo not drawn)    5.00 to 5.70

Given the entry `Cc1ccc2c(N3CCC[C@@H](CNC(=O)OCC(C)C)C3)nc(-c3c(O)cccc3F)nc2c1` , what pIC50 was observed with NaV 1.8 channel (Homo sapiens, UniProt Q9Y5Y9)? > 5.70

Record lookup: for NaV 1.8 channel (Homo sapiens, UniProt Q9Y5Y9), what pIC50 belongs to Cc1ccc2c(N3CC[C@@H](NC(=O)C4CCC(=O)N4)C3)nc(-c3ccccc3O)nc2c1 (stereo partly drawn) ? < 5.00

Request body: readout pIC50, system NaV 1.8 channel (Homo sapiens, UniProt Q9Y5Y9), query Cc1ccc2c(N3CCN(C(=O)C(O)CCl)CC3)nc(-c3ccccc3O)nc2c1 (stereo not drawn) . Return the value. < 5.00

pIC50 of `COCCOC(=O)NC[C@@H]1CCN(c2nc(-c3ccccc3O)nc3ccc(F)cc23)C1` on NaV 1.8 channel (Homo sapiens, UniProt Q9Y5Y9)? 5.00 to 5.70

Write down the reported pIC50 of `COCCOC(=O)NC[C@@H]1CCN(c2nc(-c3c(O)cccc3F)nc3cc(C)ccc23)C1` , test system: NaV 1.8 channel (Homo sapiens, UniProt Q9Y5Y9). 5.00 to 5.70

Look up pIC50 with NaV 1.8 channel (Homo sapiens, UniProt Q9Y5Y9) for this compound: CCC(C)(O)CC(=O)N1CCN(c2nc(-c3ccccc3O)nc3cc(C)ccc23)CC1 (stereo not drawn) < 5.00

Look up pIC50 with NaV 1.8 channel (Homo sapiens, UniProt Q9Y5Y9) for this compound: `Cc1ccc2c(N3CCC(NC(=O)OC(C)(C)C)CC3)nc(-c3ccccc3O)nc2c1` > 5.70
